# assayed-system: Lysine-specific demethylase 4A (Homo sapiens) (UniProt O75164)
# Sequence (O75164 whole entry, looked up, the tested form may be a part): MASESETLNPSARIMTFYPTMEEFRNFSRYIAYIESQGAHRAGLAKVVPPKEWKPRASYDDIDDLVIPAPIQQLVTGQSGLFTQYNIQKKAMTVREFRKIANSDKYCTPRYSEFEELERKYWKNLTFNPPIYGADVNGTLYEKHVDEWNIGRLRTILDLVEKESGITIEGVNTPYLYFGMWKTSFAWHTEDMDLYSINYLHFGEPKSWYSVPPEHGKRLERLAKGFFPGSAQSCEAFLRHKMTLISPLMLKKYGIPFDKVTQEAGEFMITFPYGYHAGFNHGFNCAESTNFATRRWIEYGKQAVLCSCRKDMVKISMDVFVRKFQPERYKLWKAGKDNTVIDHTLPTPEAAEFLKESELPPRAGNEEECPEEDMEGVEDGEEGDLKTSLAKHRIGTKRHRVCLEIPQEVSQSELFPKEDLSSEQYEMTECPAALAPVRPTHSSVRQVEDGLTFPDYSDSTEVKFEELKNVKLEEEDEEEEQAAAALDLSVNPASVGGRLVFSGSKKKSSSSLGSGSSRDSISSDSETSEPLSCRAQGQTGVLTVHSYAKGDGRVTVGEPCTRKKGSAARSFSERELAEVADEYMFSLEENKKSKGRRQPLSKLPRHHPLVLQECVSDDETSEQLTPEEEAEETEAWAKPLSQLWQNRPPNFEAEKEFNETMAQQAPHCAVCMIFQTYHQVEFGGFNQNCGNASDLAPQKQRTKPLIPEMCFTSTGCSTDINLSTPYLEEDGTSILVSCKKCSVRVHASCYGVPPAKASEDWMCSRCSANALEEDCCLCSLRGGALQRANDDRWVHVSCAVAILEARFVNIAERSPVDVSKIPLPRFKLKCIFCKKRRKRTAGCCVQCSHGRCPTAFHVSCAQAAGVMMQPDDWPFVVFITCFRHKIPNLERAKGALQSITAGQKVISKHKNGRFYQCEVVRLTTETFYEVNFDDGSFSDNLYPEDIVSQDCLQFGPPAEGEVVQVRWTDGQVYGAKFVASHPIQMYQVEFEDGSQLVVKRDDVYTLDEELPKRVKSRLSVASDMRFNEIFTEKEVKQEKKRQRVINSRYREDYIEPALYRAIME
# procedure-summary: qHTS Assay for Inhibitors of JMJD2A-Tudor Domain; note: nearly all actives have a fitted effect of over 50% in size
# recorded-conditions: AlphaScreen JMJD2A-Tudor / H3K4me3 peptide binding; series mostly up to 114 µM
About 17,000 (4.4%) of roughly 390,000 compounds were called active. Inconclusive results (about 8%) are left out. Calls come from the whole dose curve; as a rule, active = well fitted inhibition curve with a large enough effect; inconclusive = small, poorly fitted or top-dose-only effect; inactive = no such curve, though single readings can be large or run the other way. This excerpt belongs to a sample that is enriched for actives.
The reply should be one of these categories: active, inactive

Problem: Look up the recorded call for `Cc1ccc(Cc2nc3ccccc3nc2SCC(=O)Nc2cccc(C(F)(F)F)c2)cc1` in this test.
Solution: inactive

Problem: Look up the recorded call for `Cc1cc(/C=C2/SC(=O)N(CC(=O)N3CCCC3)C2=O)c(C)n1C` in this test.
Solution: inactive

Problem: Look up the recorded call for `Cc1cc(/C=C2/SC(=O)N(CC(=O)OC(C)C)C2=O)c(C)n1C` in this test.
Solution: inactive

Problem: Look up the recorded call for `CC(=O)Nc1cccc(/C(C)=N/NC(=O)c2c(-c3ccccc3Cl)noc2C)c1` in this test.
Solution: inactive

Problem: Look up the recorded call for `C/C(=N\Nc1cccc(C(=O)O)c1)c1ccc2c(c1)Nc1ccccc1S2` in this test.
Solution: active
